- assayedSystem: T1, PMA-treated THP-1 cells (endogenously expressed human MSR1) (Homo sapiens, UniProt P21757)
- T1 construct: endogenous in cells; host or cells: THP-1 cells differentiated with PMA
- T1 sequence (P21757 1-451): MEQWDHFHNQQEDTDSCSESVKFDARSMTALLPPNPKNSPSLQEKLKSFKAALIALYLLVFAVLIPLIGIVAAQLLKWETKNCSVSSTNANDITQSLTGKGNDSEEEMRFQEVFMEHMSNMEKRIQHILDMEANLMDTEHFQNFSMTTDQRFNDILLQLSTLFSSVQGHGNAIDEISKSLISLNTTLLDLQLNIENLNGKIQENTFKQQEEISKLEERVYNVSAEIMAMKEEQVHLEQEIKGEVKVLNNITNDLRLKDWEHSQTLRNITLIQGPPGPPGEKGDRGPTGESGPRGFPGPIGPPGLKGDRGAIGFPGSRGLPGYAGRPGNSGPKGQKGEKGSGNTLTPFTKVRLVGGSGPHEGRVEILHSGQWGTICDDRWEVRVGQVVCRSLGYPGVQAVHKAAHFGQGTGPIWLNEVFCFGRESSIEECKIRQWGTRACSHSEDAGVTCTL
- assayDetails: Electrochemiluminescence antibody binding assay on MSR1-expressing cells
- Format: cell-based
reportedMetric: Ratio of 11 nM Antibody Binding Signal (RLU) to isotype control, PMA-treated THP-1
Respond with the number and no other words.

molecule	measValue
H1H27739P-N297Q: anti-MSR1 antibody "made with an N297Q single point mutation in human Fcγ portion" (antibody, V domains shown) VH: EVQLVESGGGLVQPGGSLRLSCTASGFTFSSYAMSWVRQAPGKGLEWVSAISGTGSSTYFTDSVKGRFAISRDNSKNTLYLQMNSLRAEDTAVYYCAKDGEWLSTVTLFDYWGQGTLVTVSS VL: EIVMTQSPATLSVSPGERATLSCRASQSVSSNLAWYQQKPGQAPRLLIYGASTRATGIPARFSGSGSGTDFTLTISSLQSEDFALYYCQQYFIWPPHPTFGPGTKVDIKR	9

Q) Recorded Ratio of 11 nM Antibody Binding Signal (RLU) to isotype control, PMA-treated THP-1 for H1H21231N: "anti-MSR1 antibodies ... (21227N, 21231N, 21234N) were produced with the original human Fcγ portion"; "H1H" = human IgG1 Fc (antibody, V domains shown, human IgG1 Fc, "anti-MSR1 antibodies ; (21227N, 21231N, 21234N) were produced with the original human Fcγ portion"; "H1H" = human IgG1 Fc) VH: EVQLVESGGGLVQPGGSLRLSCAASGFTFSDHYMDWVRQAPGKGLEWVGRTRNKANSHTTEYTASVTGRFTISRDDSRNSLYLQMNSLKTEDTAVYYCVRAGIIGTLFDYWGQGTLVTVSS VL: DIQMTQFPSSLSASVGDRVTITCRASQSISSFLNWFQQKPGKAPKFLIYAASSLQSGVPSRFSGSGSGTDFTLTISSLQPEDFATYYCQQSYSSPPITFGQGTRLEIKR , please?
A) 42

Provenance of the data: patent US12497460B2
